Origin of values: ChEMBL document CHEMBL1133927

test system: Plasmodium falciparum; assay: In vitro total parasite growth inhibition for chloroquine-sensitive Plasmodium falciparum FJB D9; type: functional, organism-based
Provide the reported log10(IC50) of each item.
Response schema: value (number) is log10 of IC50 in units of uM well-1.

Here are 3 compounds together with their reported answers.
CC(C)(C)OOCN1CCCCC1 ... 0.74
CC(C)(C)OOCN(Cc1ccccc1)Cc1cccs1 ... 0.43
CC(C)=CCCC(C)CCN(COOC(C)(C)C)Cc1ccccc1 (configuration not stated) ... 0.64

Hi team, please reply with log10(IC50) for each item in this list.
1. COC1=CC=C2[C@H]3Cc4ccc(OC)c5c4[C@@]2(CCN3COOC(C)(C)C)[C@H]1O5
2. CC(C)(C)OOCN1CCOCC1
3. C[C@@H]1CC[C@H]2[C@@H](C)C(=O)O[C@@H]3O[C@@]4(C)CC[C@@H]1[C@]32OO4
4. CC(C)(C)OOCN(Cc1ccccc1)Cc1ccco1
5. CC(C)=CCCC(C)CCN(CCO)COOC(C)(C)C (configuration not stated)
6. CC(C)(C)OOCN(C1CCCCC1)C1CCCCC1

Marked response:
0.26
-0.82
-1.82
0.32
0.89
0.70

----------
Provide the reported IC50 of each item.
test system: Plasmodium falciparum; assay: In vitro schizont maturation inhibition for chloroquine-sensitive Plasmodium falciparum FJB D9; format: functional, organism-based

Here are 5 compounds together with their reported answers.
CC(C)(C)OOCN1CCCC1 ... > 25 uM well-1
CC(C)(C)OOCN(Cc1ccccc1)Cc1cccs1 ... 0.9 uM well-1
CC(C)=CCCC(C)CCN(CCO)COOC(C)(C)C (configuration not stated) ... 3.2 uM well-1
CC(C)(C)OOCN1CCOCC1 ... 0.058 uM well-1
CC(C)(C)OOCN1CCCCC1 ... 3.6 uM well-1

Hi team, please reply with IC50 for each item in this list.
1. CC(C)(C)OOCN(Cc1ccccc1)Cc1ccco1
2. CC(C)=CCCC(C)CCN(COOC(C)(C)C)Cc1ccccc1 (configuration not stated)

Marked response:
["1.45 uM well-1", "1.6 uM well-1"]

----------
system: Plasmodium falciparum; experiment: In vitro schizont maturation inhibition for chloroquine-sensitive Plasmodium falciparum FJB D9; format: functional, organism-based
Provide the reported IC50 of each item.
Numbers only, in uM well-1.

Here are 3 compounds together with their reported answers.
COC1=CC=C2[C@H]3Cc4ccc(OC)c5c4[C@@]2(CCN3COOC(C)(C)C)[C@H]1O5 ... 0.135
CC(C)(C)OOCN(CCO)CCO ... 22
C[C@@H]1CC[C@H]2[C@@H](C)C(=O)O[C@@H]3O[C@@]4(C)CC[C@@H]1[C@]32OO4 [ARTEMISININ] ... 0.01

As a next step, examine the compound that follows.
Exam item: Write down the reported IC50 of `CC(C)(C)OOCN(C1CCCCC1)C1CCCCC1` , test system: Plasmodium falciparum.
Marked response: 1.5

----------
tested on: Plasmodium falciparum; assay: In vitro total parasite growth inhibition for chloroquine-sensitive Plasmodium falciparum FSH 14; type: functional
measure.name: IC90

Here are 5 molecules together with their reported answers.
CC(C)(C)OOCN1CCOCC1 ... 2.15 uM well-1
COC1=CC=C2[C@H]3Cc4ccc(OC)c5c4[C@@]2(CCN3COOC(C)(C)C)[C@H]1O5 ... 5 uM well-1
C[C@@H]1CC[C@H]2[C@@H](C)C(=O)O[C@@H]3O[C@@]4(C)CC[C@@H]1[C@]32OO4 ... 0.029 uM well-1
CC(C)=CCCC(C)CCN(CCO)COOC(C)(C)C (configuration not stated) ... >25 uM well-1
CC(C)(C)OOCN(Cc1ccccc1)Cc1ccco1 ... 5.4 uM well-1

Hi team, please reply with IC90 for each item in this list.
1. CC(C)(C)OOCN1CCCC1
2. CC(C)=CCCC(C)CCN(COOC(C)(C)C)Cc1ccccc1 (configuration not stated)

Marked response:
>25 uM well-1
12 uM well-1

Hi team, please reply with IC90 for each item in this list.
1. CC(C)(C)OOCN(CCO)CCO
2. CC(C)(C)OOCN1CCCCC1
3. CC(C)(C)OOCN(Cc1ccccc1)Cc1cccs1

Marked response:
1. >25 uM well-1
2. >25 uM well-1
3. 12 uM well-1

Hi team, please reply with IC90 for each item in this list.
1. CC(C)(C)OOCN(C1CCCCC1)C1CCCCC1
2. CCN(CC)COOC(C)(C)C

Marked response:
[">25 uM well-1", ">25 uM well-1"]
